Ref: patent US20210253725A1

SYSTEM NAME: T1, CD27 expressed on the cell surface of HT1080_CD27 cells (human, UniProt P26842 20-260)
T1 construct: whole, on cells; species not restated for the HT1080 transfectant
T1 sequence (looked up): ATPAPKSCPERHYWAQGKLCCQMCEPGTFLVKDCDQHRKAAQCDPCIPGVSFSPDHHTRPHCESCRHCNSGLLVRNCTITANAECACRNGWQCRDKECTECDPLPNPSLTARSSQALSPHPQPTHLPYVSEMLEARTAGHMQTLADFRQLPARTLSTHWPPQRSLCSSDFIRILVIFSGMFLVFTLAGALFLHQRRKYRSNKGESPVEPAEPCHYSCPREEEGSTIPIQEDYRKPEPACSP
ASSAY INFO: HT1080_CD27 cells, imaging; further: test concentration or dose not given here
REPORTED ENDPOINT: Cellular binding assay [RFU] (RFU)
Use RFU as the unit, but write only the number.

Check out these entries, answers already filled in.
Incoming: Identify the reported Cellular binding assay [RFU] for the following entry. P018.S.06.A.H05 (antibody, V domains shown, V regions on human Ig constant parts; also called AB27_112) VH: QSLEESGGDLVQPEGSLTLTCKASGFDFSSTYWICWVRQAPGKGLEWIGCIDDSYAYTYYASWAKGRFTISKPSSTTVTLQVTSLTVADTATYFCARDGYPGYGVGSFNLWGPGTLVTVSS VL: AIVMTQTPSSKSVPVGDTVTINCQASESVYSNNRLAWFQQKPGQPPKLLIYLASTLASGVPSRFKGSGSGTQFTLTISDVVSDDAATYYCAGYKSYSDDGTGFGGGTEVVVK
Outgoing: 308

Incoming: Identify Cellular binding assay [RFU] associated with the binder P018.S.10.A.E02 (antibody, V domains shown, V regions on human Ig constant parts; also called AB27_176) VH: QEQLEESGGDLVKPEGSLTLTCTASGFSFSSSFYMCWVRQAPGKGLEWVACIYAEDSDYTYYASWAKGRFTISKTSSTTVTLQMTSLTAADTATYFCAREILYPTNTDSFDLWGPGTLVTVSS VL: AFELTQTPSSVEAAVGGTVTIKCQASESFSSRLAWYQQKPGQPPKLLIYRASTLASGVPSRFKGSGSGTDFTLTISDLESADAAAYYCQAYVGISSGGYAFGGGTEVVVG
Outgoing: 395

Incoming: Indicate its recorded Cellular binding assay [RFU]; the binder in question is P018.S.10.A.F04 (antibody, V domains shown, V regions on human Ig constant parts; also called AB27_180) VH: QSVEESGGRLVTPGTPLTLTCTASGFYLSSHYMSWVRQAPGKGLEWIGIIYATGIASYANWAKGRFTISKTSTTVSLKMTSPTTEDTATYFCARYDSQDYYGYGNLWGPGTLVTVSS VL: AYDMTQTPASVEVAVGGTVTIKCQASQNIYNNLAWYQQKPGQRPKLLIYRASTLASGVSSQFKGSGSGTEYTLTISGVESADAATYYCQQGYSVHDVYNTFGGGTEVVVK
Outgoing: 133

Incoming: Note down Cellular binding assay [RFU] recorded for P018.S.09.A.C02 (antibody, V domains shown, V regions on human Ig constant parts; also called AB27_147) VH: QSVEESGGRLVTPGTPLTLTCTVSGIDLSSYVMSWVRQAPGKGLEWIGYIDYGGTAYYASWAKGRFTISKTSTTVELKITSPTIEDTATYFCARGGYGGYTLVTALWGPGTLVTVSS VL: DIVMTQTPASVSEPVGGTVTIKCQASQSISSYLSWYQQKPGQPPKLLIYSTSTLASGVSSRFKGSGSGTEYTLTISDLESADAATYYCQTYYGGGPFGNGFGGGTEVVVK
Outgoing: 323

Incoming: Supply measured Cellular binding assay [RFU] of P018.S.05.A.D06 (antibody, V domains shown, V regions on human Ig constant parts; also called AB27_88) VH: QSVEESGGRLVTPGTPLTLTCTVSGFSLSSYWMSWVRQAPGKGLEWIGFIYGGSGDKYYASWAKGRFAISKTSTTVDLKITSPTTEDTATYFCARGGDGDGTYSSLWGQGTLVTVSS VL: AQVLTQTPSPVSAAVGGTVTISCQSSESVAGKNLAWYQQKPGQPPKVLIYGTSNLASRVPSRFRGSGSGTQFTLTISDLESDDAATYYCQGYYSGGIYGFGGGTEVVVE in your reply.
Outgoing: 323

Incoming: Specify reported Cellular binding assay [RFU] for the binder shown: P018.S.01.A.E02 (antibody, V domains shown, V regions on human Ig constant parts; also called AB27_14) VH: QSVEESGGRLVTPGTPLTLTCTASGFSLSNYYMSWVRQAPGKGLEWIGIISTYGDTYYATWAKGRFTISKTSTTVDLKITSPTTEDTATYFCARGSSDTYYTYFNLWGPGTLVTVSS VL: DIVMTQTPASVEAAVGGTVTIKCQASQKIYNNLAWYQQKPGQPPKLLIYSASTLASGVPSRFKGSGSGTEFTLTISDLESADAATYYCQSYGVSANTISYGLPFGGGTEVVVK
Outgoing: 360

The record that follows has no Cellular binding assay [RFU] shown yet.
Incoming: Output measured Cellular binding assay [RFU] for this item: P018.S.03.A.G05 (antibody, V domains shown, V regions on human Ig constant parts; also called AB27_58) VH: QSLEESGGDLVKPEGSLTLTCTASGFSFSSGGWICWVRQAPGRGLEWIACIYVGSSGTTHYASWAKGRFTISKTSSTTVTLQMTSLTAADTATYFCARGAVYGGGSYDNFHLWGPGTLVTVSS VL: AYDMTQTPASVSEPVGGTVTIKCQASQSIGSYLSWYQQKPGQRPKLLIYAASTLASGVQSRFKGSGSGTDYTLTISGVQSDDAATYYCQQGYNISNLDNTFGGGTEVVVK
Outgoing: 269
